target: α7 nAChR Subtype (Rattus norvegicus); construct: The hippocampus was removed and placed in 10 volumes (weight:volume) of ice-cold preparative buffer; from tissue; host or cells: rat hippocampus membranes; test: Radioligand binding ([3H]MLA) at α7 nAChR subtype, rat hippocampus membranes; HTS at 5 μM; conditions: [3H]MLA 5 nM, rat hippocampus
Sequence (Q05941 23-502): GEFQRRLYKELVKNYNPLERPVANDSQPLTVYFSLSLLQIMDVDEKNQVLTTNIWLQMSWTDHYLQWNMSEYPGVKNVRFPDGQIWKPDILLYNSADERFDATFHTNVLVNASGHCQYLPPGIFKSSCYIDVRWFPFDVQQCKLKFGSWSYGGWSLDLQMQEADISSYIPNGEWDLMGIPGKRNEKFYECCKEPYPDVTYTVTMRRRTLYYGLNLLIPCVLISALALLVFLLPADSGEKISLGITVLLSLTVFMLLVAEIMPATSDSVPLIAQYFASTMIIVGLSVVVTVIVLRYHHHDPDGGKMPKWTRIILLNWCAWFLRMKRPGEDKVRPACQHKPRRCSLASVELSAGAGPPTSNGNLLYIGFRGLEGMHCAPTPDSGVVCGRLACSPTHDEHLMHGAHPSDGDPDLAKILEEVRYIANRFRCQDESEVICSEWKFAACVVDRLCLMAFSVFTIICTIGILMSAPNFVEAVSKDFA

- Line notation: "O=C(c1ccco1)N1C[C@@H]2CN[C@@H](C2)C1"
  Ki: "1.02 µM"

---

# Lookup of reported pKi keyed by entry
target: Human α4β2 (Homo sapiens, UniProt P17787+P43681); test: Binding at human α4β2 subtype (Table 1); conditions: read-out: Human α4β2 Ki
Sequence (P43681 29-627 limits assumed): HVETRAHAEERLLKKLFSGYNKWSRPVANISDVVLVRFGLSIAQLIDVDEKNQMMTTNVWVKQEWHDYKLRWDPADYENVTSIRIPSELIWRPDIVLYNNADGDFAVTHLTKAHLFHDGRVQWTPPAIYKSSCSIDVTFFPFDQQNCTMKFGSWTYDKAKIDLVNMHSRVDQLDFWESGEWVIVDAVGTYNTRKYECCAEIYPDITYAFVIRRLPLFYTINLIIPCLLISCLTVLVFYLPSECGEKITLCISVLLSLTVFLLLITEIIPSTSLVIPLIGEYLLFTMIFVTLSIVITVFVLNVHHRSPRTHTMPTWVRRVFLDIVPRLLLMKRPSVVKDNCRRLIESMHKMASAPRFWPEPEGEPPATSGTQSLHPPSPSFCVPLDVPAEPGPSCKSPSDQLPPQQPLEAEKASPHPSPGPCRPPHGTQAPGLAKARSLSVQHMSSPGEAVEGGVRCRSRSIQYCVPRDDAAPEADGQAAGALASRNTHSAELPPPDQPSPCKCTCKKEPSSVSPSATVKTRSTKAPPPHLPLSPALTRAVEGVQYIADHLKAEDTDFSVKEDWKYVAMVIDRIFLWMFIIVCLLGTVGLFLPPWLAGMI
Sequence (P17787 26-502): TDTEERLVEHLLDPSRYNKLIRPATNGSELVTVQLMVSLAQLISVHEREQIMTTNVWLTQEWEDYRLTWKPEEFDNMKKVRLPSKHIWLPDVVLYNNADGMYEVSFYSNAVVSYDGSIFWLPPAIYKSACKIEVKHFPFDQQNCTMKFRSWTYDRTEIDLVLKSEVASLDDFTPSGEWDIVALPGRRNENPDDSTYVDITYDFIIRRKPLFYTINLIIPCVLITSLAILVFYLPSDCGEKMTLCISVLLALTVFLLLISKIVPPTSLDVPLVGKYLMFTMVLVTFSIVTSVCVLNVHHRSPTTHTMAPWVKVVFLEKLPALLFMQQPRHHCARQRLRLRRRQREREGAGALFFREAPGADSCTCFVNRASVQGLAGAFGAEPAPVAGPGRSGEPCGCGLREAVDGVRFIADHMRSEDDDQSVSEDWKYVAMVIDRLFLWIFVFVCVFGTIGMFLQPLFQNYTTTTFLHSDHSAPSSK
pKi: −log10 of the molar value.
Measurement label: pKi

- Compound: "Cc1ncoc1C(=O)N1CC2CNCCC21 (stereo not drawn)"
  Value observed: 6.29
- Compound: "O=C(c1ccc(Br)o1)N1C[C@H]2CN[C@H](C2)C1"
  Value observed: 8.17
- Compound: "O=C(c1ccc(Br)o1)N1CC2CNC(C2)C1 (stereo not drawn)"
  Value observed: 9.10
- Compound: "COc1cc(C(=O)N2CC3CNCC2C3)on1 (stereo not drawn)"
  Value observed: 6.51
- Compound: "O=C(c1cccs1)N1C[C@H]2CN[C@H](C2)C1"
  Value observed: 8.14
- Compound: "O=C(c1ccco1)N1C[C@H]2CN[C@H](C2)C1"
  Value observed: 7.88
- Compound: "Cc1occc1C(=O)N1C[C@H]2CN[C@H](C2)C1"
  Value observed: 7.96
- Compound: "O=C(c1ccco1)N1CC2CCNC2C1 (stereo not drawn)"
  Value observed: 6.10
- Compound: "O=C(c1ccco1)N1CC2CNC(C2)C1 (stereo not drawn)"
  Value observed: 7.62
- Compound: "Cc1ncoc1C(=O)N1CC2CCNCC2C1 (stereo not drawn)"
  Value observed: 6.67
- Compound: "O=C(c1ccc(F)o1)N1C[C@@H]2CN[C@@H](C2)C1"
  Value observed: 7.84
- Compound: "Cc1nocc1C(=O)N1C[C@H]2CN[C@H](C2)C1"
  Value observed: 7.26
- Compound: "CC(C)c1cc(C(=O)N2C[C@@H]3CN[C@@H](C3)C2)on1"
  Value observed: 6.14
- Compound: "O=C(c1cccnc1)N1CC2CNC(C2)C1 (stereo not drawn)"
  Value observed: 6.44
- Compound: "O=C(c1ccno1)N1C[C@H]2CN[C@H](C2)C1"
  Value observed: 7.94
- Compound: "O=C(c1ccc(Cl)o1)N1C[C@@H]2CN[C@@H](C2)C1"
  Value observed: 7.57
- Compound: "Cc1cc(C(=O)N2C[C@H]3CN[C@H](C3)C2)no1"
  Value observed: 7.77
- Compound: "N#Cc1coc(C(=O)N2C[C@@H]3CN[C@@H](C3)C2)c1"
  Value observed: 7.31
- Compound: "Cc1cc(C(=O)N2C[C@@H]3CN[C@@H](C3)C2)no1"
  Value observed: 6.30
- Compound: "Cc1ccoc1C(=O)N1CC2CNC(C2)C1 (stereo not drawn)"
  Value observed: 8.47
- Compound: "O=C(c1ccno1)N1C[C@@H]2CN[C@@H](C2)C1"
  Value observed: 7.46
- Compound: "O=C(c1cc(Br)no1)N1CC2CNC(C2)C1 (stereo not drawn)"
  Value observed: 8.55
- Compound: "O=C(c1ccco1)N1C[C@@H]2CN[C@@H](C2)C1"
  Value observed: 7.77
- Compound: "O=C(c1ccoc1)N1C[C@H]2CN[C@H](C2)C1"
  Value observed: 7.98
- Compound: "O=C(c1cc(Br)no1)N1C[C@H]2CN[C@H](C2)C1"
  Value observed: 8.74
- Compound: "COc1cc(C(=O)N2CC3CNC(C3)C2)on1 (stereo not drawn)"
  Value observed: 8.43
- Compound: "O=C(c1ccc(Br)o1)N1C[C@@H]2CN[C@@H](C2)C1 [drawing 16]"
  Value observed: 7.37

---

molecular target: α7 nAChR Subtype (Rattus norvegicus); construct: The hippocampus was removed and placed in 10 volumes (weight:volume) of ice-cold preparative buffer; from tissue; host or cells: rat hippocampus membranes; test: Radioligand binding ([3H]MLA) at α7 nAChR subtype, rat hippocampus membranes; HTS at 5 μM; conditions: 5 μM compound, 5 nM 3H-MLA; read-out: α7 high throughput screening (HTS) binding

- Compound: "O=C(c1ccco1)N1CC2CNCC1C2 (stereo not shown)"
  inhibition at 5 µM: "≤ 50%"
- Compound: "Cc1occc1C(=O)N1C[C@H]2CN[C@H](C2)C1"
  inhibition at 5 µM: "≤ 50%"
- Compound: "O=C(c1ccc(Br)o1)N1CC2CNC(C2)C1 (stereo not shown)"
  inhibition at 5 µM: "≤ 50%"
- Compound: "COc1cc(C(=O)N2C[C@@H]3CN[C@@H](C3)C2)on1"
  inhibition at 5 µM: "≤ 50%"
- Compound: "Cc1ccoc1C(=O)N1CC2CNCC1C2 (stereo not shown)"
  inhibition at 5 µM: "≤ 50%"
- Compound: "Cc1cc(C(=O)N2C[C@H]3CN[C@H](C3)C2)no1"
  inhibition at 5 µM: "≤ 50%"
- Compound: "O=C(c1ccno1)N1C[C@@H]2CN[C@@H](C2)C1"
  inhibition at 5 µM: "≤ 50%"
- Compound: "O=C(c1ccco1)N1C[C@H]2CN[C@H](C2)C1"
  inhibition at 5 µM: "≤ 50%"
- Compound: "Cc1nocc1C(=O)N1CC2CCNCC2C1 (stereo not shown)"
  inhibition at 5 µM: "≤ 50%"
- Compound: "O=C(c1cnco1)N1C[C@@H]2CN[C@@H](C2)C1"
  inhibition at 5 µM: "≤ 50%"

---

target: α4β2 nAChR Subtype (Rattus norvegicus, UniProt P09483+P12390); construct: The cerebral cortex was removed and placed in 20 volumes (weight:volume) of ice-cold preparative buffer; from tissue; host or cells: rat cerebral cortex membranes; assay: Radioligand binding ([3H]nicotine) at rat α4β2 nAChR subtype, rat cerebral cortex membranes
Sequence (P09483 31-630): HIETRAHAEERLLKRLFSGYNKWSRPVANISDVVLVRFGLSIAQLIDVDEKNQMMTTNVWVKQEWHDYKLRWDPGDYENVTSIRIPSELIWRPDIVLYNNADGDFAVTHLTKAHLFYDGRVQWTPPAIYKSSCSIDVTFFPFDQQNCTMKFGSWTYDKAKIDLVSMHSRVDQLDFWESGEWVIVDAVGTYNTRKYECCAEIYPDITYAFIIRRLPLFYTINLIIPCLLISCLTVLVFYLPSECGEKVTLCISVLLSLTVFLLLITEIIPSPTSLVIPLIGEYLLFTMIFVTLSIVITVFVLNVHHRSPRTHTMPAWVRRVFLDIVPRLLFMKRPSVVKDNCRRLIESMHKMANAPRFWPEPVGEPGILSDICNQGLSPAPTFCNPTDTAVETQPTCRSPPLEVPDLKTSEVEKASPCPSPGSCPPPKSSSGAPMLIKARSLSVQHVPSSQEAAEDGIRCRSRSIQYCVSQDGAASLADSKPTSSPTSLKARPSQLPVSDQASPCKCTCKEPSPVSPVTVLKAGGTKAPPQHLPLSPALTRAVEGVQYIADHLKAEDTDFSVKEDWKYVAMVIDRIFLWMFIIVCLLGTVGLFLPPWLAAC
Sequence (P12390 25-500): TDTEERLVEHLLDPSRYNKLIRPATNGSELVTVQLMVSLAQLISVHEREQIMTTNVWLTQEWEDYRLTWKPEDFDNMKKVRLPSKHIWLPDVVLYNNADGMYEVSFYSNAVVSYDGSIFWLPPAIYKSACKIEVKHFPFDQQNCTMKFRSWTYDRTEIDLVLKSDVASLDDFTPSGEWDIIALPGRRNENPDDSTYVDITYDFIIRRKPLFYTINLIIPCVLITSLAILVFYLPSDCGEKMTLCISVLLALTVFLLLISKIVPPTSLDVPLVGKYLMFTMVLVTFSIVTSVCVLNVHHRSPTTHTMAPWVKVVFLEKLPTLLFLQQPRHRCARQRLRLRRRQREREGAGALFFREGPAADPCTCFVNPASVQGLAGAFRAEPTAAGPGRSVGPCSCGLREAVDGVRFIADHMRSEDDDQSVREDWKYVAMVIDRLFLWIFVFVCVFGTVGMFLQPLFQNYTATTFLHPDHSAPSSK
Measurement label: log10 Ki (log10 of the value in nM)

- Compound: "O=C(c1ccoc1)N1C[C@H]2CN[C@H](C2)C1"
  Value observed: 1.03
- Compound: "N#Cc1coc(C(=O)N2C[C@@H]3CN[C@@H](C3)C2)c1"
  Value observed: 1.37
- Compound: "O=C(c1ccc(F)o1)N1C[C@H]2CN[C@H](C2)C1"
  Value observed: 0.93
- Compound: "O=C(c1cc(Br)no1)N1CC2CNC(C2)C1 (stereo not shown)"
  Value observed: 0.53
- Compound: "Cc1ncoc1C(=O)N1C[C@H]2CN[C@H](C2)C1"
  Value observed: 0.95
- Compound: "Cc1cc(C(=O)N2C[C@H]3CN[C@H](C3)C2)no1"
  Value observed: 1.17
- Compound: "O=C(c1cnco1)N1C[C@@H]2CN[C@@H](C2)C1"
  Value observed: 1.85
- Compound: "O=C(c1ccc(Br)o1)N1C[C@@H]2CN[C@@H](C2)C1 [drawing 16]"
  Value observed: 1.59
- Compound: "O=C(c1cc(Cl)co1)N1C[C@@H]2CN[C@@H](C2)C1"
  Value observed: 1.49
- Compound: "O=C(c1ccc(F)o1)N1C[C@@H]2CN[C@@H](C2)C1"
  Value observed: 0.97
- Compound: "O=C(c1cc(Br)no1)N1C[C@H]2CN[C@H](C2)C1"
  Value observed: 0.54
- Compound: "Cc1coc(C(=O)N2C[C@@H]3CN[C@@H](C3)C2)c1"
  Value observed: 1.47
- Compound: "Cc1nocc1C(=O)N1C[C@H]2CN[C@H](C2)C1"
  Value observed: 1.75
- Compound: "O=C(c1cnco1)N1C[C@H]2CN[C@H](C2)C1"
  Value observed: 1.11
- Compound: "O=C(c1ccc(Br)o1)N1C[C@H]2CN[C@H](C2)C1"
  Value observed: 1.16
- Compound: "O=C(c1ccco1)N1C[C@H]2CN[C@H](C2)C1"
  Value observed: 1.03
- Compound: "O=C(c1ccco1)N1C[C@@H]2CN[C@@H](C2)C1"
  Value observed: 1.61
- Compound: "O=C(c1cccs1)N1C[C@H]2CN[C@H](C2)C1"
  Value observed: 0.77
- Compound: "O=C(c1ccno1)N1C[C@@H]2CN[C@@H](C2)C1"
  Value observed: 1.43
- Compound: "Cc1occc1C(=O)N1C[C@H]2CN[C@H](C2)C1"
  Value observed: 1.24
- Compound: "O=C(c1ccc(Br)o1)N1CC2CNC(C2)C1 (stereo not shown)"
  Value observed: 1.16
- Compound: "COc1cc(C(=O)N2CC3CNC(C3)C2)on1 (stereo not shown)"
  Value observed: 0.70
- Compound: "O=C(c1ccco1)N1CC2CNC(C2)C1 (stereo not shown)"
  Value observed: 1.28
- Compound: "O=C(c1ccc(Cl)o1)N1C[C@@H]2CN[C@@H](C2)C1"
  Value observed: 1.60
- Compound: "O=C(c1ccno1)N1C[C@H]2CN[C@H](C2)C1"
  Value observed: 1.01

Each recorded value in this set is attributed to patent US20100144700A1.
